- System: human IgG in mouse serum
- measurement-description: Immunoglobulin G (IgG) mRNA in vivo evaluation using lipid nanoparticle compositions (human IgG ELISA of mouse serum)
- Parameters: species or system CD-1/ICR mice
- condition-summary: lipid formulated as LNP (cationic lipid/DSPC/cholesterol/PEG lipid) with IgG mRNA; 0.3 mg mRNA/kg, tail vein injection, mice; serum measured 24 hours after administration
Items are presented alongside their recorded Serum IgG (ug/mL) @ 0.3 mg/kg.
attribute-measured: Serum IgG (ug/mL) @ 0.3 mg/kg (µg/mL)

• CCCCCCCCCCN(CCCCCCCCCC)C(=O)CCCCCCCCC(CCCCCCCCC(=O)N(CCCCCCCCCC)CCCCCCCCCC)OC(=O)CCCCN(C)C = 13.4
• CCCCCCCCCCN(CCCCCCCCN(CCCCCCCC(=O)N(CCCCCCCCCC)CCCCCCCCCC)C(=O)CN(C)C)C(=O)CCCCCCCCC = 25.9
• CCCCCCCCCCCCN(CCCCCCCCCCN(CCCCCCCCCCN(CCCCCCCCCCCC)C(=O)CCCCCCC)C(=O)OCCCN1CCCC1)C(=O)CCCCCCC = 7.9
